Every entry's value here was drawn from the supplement of paper PMC10219994.

Would you mind telling me the reported ligation selection enrichment of each entry?
B1: library; a variant is named by its letters at N, in order (parent)
chain: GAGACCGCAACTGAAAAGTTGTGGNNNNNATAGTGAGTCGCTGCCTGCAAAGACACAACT

# Variants of: B1
# assay_name: ligation selection enrichment (abundance after / before one-round selection) (fold); higher = more template-directed ligation activity
# condition_summary: with T7Psub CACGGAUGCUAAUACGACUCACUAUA; MgCl2 25 mM; 42 °C; 4 h; pH 8.5

[in] Please report the recorded ligation selection enrichment for GAGACCGCAACTGAAAAGTTGTGGTGCGCATAGTGAGTCGCTGCCTGCAAAGACACAACT [TGCGC] .
[out] 0.217

[in] Please report the recorded ligation selection enrichment for GAGACCGCAACTGAAAAGTTGTGGAAAGCATAGTGAGTCGCTGCCTGCAAAGACACAACT [AAAGC] .
[out] 0.199

[in] Please report the recorded ligation selection enrichment for GAGACCGCAACTGAAAAGTTGTGGGACGCATAGTGAGTCGCTGCCTGCAAAGACACAACT [GACGC] .
[out] 0.264

[in] Please report the recorded ligation selection enrichment for GAGACCGCAACTGAAAAGTTGTGGAGCGGATAGTGAGTCGCTGCCTGCAAAGACACAACT [AGCGG] .
[out] 0.213

[in] Please report the recorded ligation selection enrichment for GAGACCGCAACTGAAAAGTTGTGGAGTGTATAGTGAGTCGCTGCCTGCAAAGACACAACT [AGTGT] .
[out] 0.133

[in] Please report the recorded ligation selection enrichment for GAGACCGCAACTGAAAAGTTGTGGAAACAATAGTGAGTCGCTGCCTGCAAAGACACAACT [AAACA] .
[out] 0.177

[in] Please report the recorded ligation selection enrichment for GAGACCGCAACTGAAAAGTTGTGGACTATATAGTGAGTCGCTGCCTGCAAAGACACAACT [ACTAT] .
[out] 0.119

[in] Please report the recorded ligation selection enrichment for GAGACCGCAACTGAAAAGTTGTGGCATTTATAGTGAGTCGCTGCCTGCAAAGACACAACT [CATTT] .
[out] 0.539

[in] Please report the recorded ligation selection enrichment for GAGACCGCAACTGAAAAGTTGTGGCCGGAATAGTGAGTCGCTGCCTGCAAAGACACAACT [CCGGA] .
[out] 0.278

[in] Please report the recorded ligation selection enrichment for GAGACCGCAACTGAAAAGTTGTGGACTCTATAGTGAGTCGCTGCCTGCAAAGACACAACT [ACTCT] .
[out] 0.248

[in] Please report the recorded ligation selection enrichment for GAGACCGCAACTGAAAAGTTGTGGTAATAATAGTGAGTCGCTGCCTGCAAAGACACAACT [TAATA] .
[out] 0.189
